Target: Short transient receptor potential channel 4 (Mus musculus)
Test: blockers of DAMGO-evoked TRPC4 calcium flux – cell-based, Fluo4, HEK293 TRPC4beta/mu-opioid, confirmation (AID 2636)
Conditions: at 10 µM
Activity calls are given as the source filed them.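 Rule for the calls: active = calcium signal cut by more than 3 SD below the full-agonist control yet still positive, in both repeats and the earlier primary screen; inactive = the rest.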
Mark one answer only. Choices: YES for active, NO for inactive

> print(dat)
                                   molecule  class.label
1            Cc1cc(OCC(=O)N2CCCC2)cc(C)c1Cl           NO
2  Cc1cc(Cl)ccc1OC(C)C(=O)Nc1ccccc1N1CCOCC1 (stereo unspecified)           NO
3  COc1cccc(CN2CCNC(=O)C2CC(=O)N(C)CCc2ccccn2)c1 (stereo unspecified)           NO
4       c1ccn2cc(C34CC5CC(CC(C5)C3)C4)nc2c1          YES
5  Cc1ccc(NC(=O)c2cc(N3C(=O)C=CC3=O)ccc2N2CCOCC2)cc1          YES

Ask | Hi, sorry to bother you, what did the test record for `C=CCOc1ccc(Br)cc1CNC(C)(C)CO` ?
Reply | YES

Ask | Entry `COc1ccc(N=C2SCC(=O)N2Cc2ccccc2)cc1` : call = ?
Reply | NO

Ask | Test call for this molecule, please: `Cc1ccc(NS(=O)(=O)c2ccc(NS(=O)(=O)c3cccs3)cc2)cc1`
Reply | NO

Ask | Please let me know the test result on file for `Cc1nnc(Sc2cc(NCCCO)c([N+](=O)[O-])c3nonc23)s1` .
Reply | YES

Ask | What outcome does the record of this test show for `CCCSc1nc(C)cc(C)c1S(=O)(=O)c1ccccc1C` ?
Reply | NO

Ask | Recorded test outcome, item CCCCCOc1ccc2oc(=O)c3c(c2c1)CCCN3C(=O)CN1CCCC(C(=O)OCC)C1 (stereo unspecified)
Reply | NO

* * *

Biological target: Short transient receptor potential channel 4 (Mus musculus) (UniProt Q9QUQ5)
Sequence (Q9QUQ5 whole entry, looked up): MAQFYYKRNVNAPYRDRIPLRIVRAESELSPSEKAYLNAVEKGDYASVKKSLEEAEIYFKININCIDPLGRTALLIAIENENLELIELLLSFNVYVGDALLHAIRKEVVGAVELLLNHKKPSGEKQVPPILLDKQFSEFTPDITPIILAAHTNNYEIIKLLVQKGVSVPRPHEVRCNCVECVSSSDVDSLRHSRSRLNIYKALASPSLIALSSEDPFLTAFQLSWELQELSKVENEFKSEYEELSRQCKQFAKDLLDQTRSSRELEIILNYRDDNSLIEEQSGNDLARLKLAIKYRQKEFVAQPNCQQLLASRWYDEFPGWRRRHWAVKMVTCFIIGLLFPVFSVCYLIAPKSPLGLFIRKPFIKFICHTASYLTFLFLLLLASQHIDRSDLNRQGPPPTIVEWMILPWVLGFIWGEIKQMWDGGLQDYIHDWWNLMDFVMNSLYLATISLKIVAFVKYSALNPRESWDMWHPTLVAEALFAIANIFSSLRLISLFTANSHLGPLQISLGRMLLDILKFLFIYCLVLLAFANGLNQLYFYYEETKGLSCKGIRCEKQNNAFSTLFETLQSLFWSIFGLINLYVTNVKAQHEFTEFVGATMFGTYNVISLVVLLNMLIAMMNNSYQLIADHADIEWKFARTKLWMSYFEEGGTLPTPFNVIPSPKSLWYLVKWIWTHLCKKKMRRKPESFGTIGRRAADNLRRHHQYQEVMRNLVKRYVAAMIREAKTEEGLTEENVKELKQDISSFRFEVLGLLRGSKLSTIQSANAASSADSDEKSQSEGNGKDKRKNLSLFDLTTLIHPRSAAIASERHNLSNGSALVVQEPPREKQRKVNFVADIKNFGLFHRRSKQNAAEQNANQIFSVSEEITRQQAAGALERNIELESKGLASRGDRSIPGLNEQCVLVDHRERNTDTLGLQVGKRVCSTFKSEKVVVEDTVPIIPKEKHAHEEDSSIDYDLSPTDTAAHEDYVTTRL
Assay: calcium flux activators in TRPC4/5HT1a cells, counter-screen for TRPC4 activator project, cell-based, second counter screen, HEK293 TRPC4/5HT1a, Fluo-4 (AID 434977)
Conditions: Fluo-4 calcium flux, at 10 µM
Calls of active or inactive are those of the source.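 The calls were made as follows: active = calcium signal rise above buffer-control mean plus 5 SD in both duplicates, and also a hit in the primary screen; inactive = the rest.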
Mark one answer only. Choices: active, inactive

Here's what some known entries look like.
> print(dat)
                                   molecule  class.label
1                Cc1cccc(OCCOCCN2CCNCC2)c1C       active
2                    CCCOc1ccc(Br)cc1/C=N/O     inactive
3  COc1ccc(N(C(=O)c2snc(C(N)=O)c2N)C(C(=O)NC2CCCCC2)c2ccc(C)o2)c(OC)c1 (stereo not drawn)     inactive
4   CN1CCN(CCCNC(=O)CN2C(=O)COc3ccccc32)CC1     inactive
5  Cc1ccc(C(=O)Nc2ccccc2C(=O)N2CC3(C)CC2CC(C)(C)C3)cc1 (stereo not drawn)     inactive

Ask | Please share the test call associated with `Cc1cc2[nH]c3ccccc3c2c(C)n1` .
Reply | inactive

Ask | State the result this test recorded for `CCCCCc1c(O)nc(SCCN(C)C)[nH]c1=O` .
Reply | active

Ask | What did this assay record as the result for `CCc1cc(=O)oc2c(CNCc3ccccc3F)c(O)c(Cl)cc12` ?
Reply | inactive

Ask | # lookup: test call for `NC(=O)N/N=C1\c2ccccc2-c2c(C(N)=O)cccc21`
Reply | inactive

Ask | Per the assay record, what outcome was assigned to Cc1ccc(C2(CCNC(C)c3cccs3)CCOC(C(C)C)C2)cc1 (stereo not drawn) ?
Reply | inactive

Ask | Just curious, what result did Cc1ccc(N(C(=O)c2snc(C(N)=O)c2N)C(C(=O)NCC2CCCO2)c2ccc(C)o2)c(C)c1 (stereo not drawn) get here?
Reply | inactive

Ask | Lab log entry: `Cc1cc(N2CCCCCC2)nc2ccccc12` — outcome as called in the assay?
Reply | inactive

Ask | Identify the outcome logged in this assay for the molecule shown: CC1CC(C)CN(CCCNC(=O)c2ccc3c(c2)N(Cc2ccccc2)C(=O)c2ccccc2S3=O)C1 (stereo not drawn)
Reply | active

Ask | Which outcome did this test record for the molecule CC1CCc2c(C(=O)N3CCN(S(=O)(=O)c4cccs4)CC3)csc2C1 (stereo not drawn) ?
Reply | inactive

Ask | Write down the call the test reported for this molecule. Item: `COc1cc2c(C(=O)N3CCN(C)CC3)c(CSc3ccccc3)n(C)c2cc1Br`
Reply | inactive

Ask | Check the results log: what was the call for `Cc1cc(OCC(=O)N2CCCC2)cc(C)c1Cl` ?
Reply | inactive

Ask | Query: recorded result category for `Oc1ccccc1-c1cc(-c2ccco2)[nH]n1` in this test
Reply | inactive

Ask | Any idea what this test logged for `Cc1oc(-c2ccoc2)nc1CN(Cc1ccccc1)CC1CC1` ?
Reply | inactive

Ask | Recorded test outcome, item `CCc1ccc(Nc2n[n+](-c3ccccc3)c(/C=C/c3ccccc3)s2)cc1`
Reply | inactive

Ask | What classification did `Cc1ccc(C(=O)NC(=S)Nc2c(C)ccc3nsnc23)cc1` end up with in this test?
Reply | inactive

Ask | Status in this test for CCN1CCN(c2nc(C)c3c(n2)CC(C)CC3=O)CC1 (stereo not drawn) ?
Reply | inactive

Ask | How was `Cc1ccc(/C=C/C(=O)c2ccc(O)cc2)cc1` classified in this test?
Reply | inactive

Ask | What was the test verdict on `CCCCN(CC)CCCNC(=O)Cn1nc(Cc2cccnc2)c2ccccc2c1=O` ?
Reply | active

* * *

Biological target: Potassium voltage-gated channel subfamily KQT member 2 (Rattus norvegicus)
Experiment: W236L mutant KCNQ2 current enhancers – cell-based, rat KCNQ2 W236L, CHO, automated patch clamp, mechanism study for KCNQ2 potentiator project (AID 2558)
Conditions: at 25 µM
The other results are listed elsewhere or left out. Calls of active or inactive are those of the source.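 How the source made its calls: active means current increase at least 3 SD of the untreated controls above them in both duplicate recordings; inactive means the rest.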
Pick from yes (active), no (inactive) when you respond.

Example entries begin here.
> print(dat)
                                   compound  class.label
1  CC(=O)NNC(=O)c1csc(Cc2c(Cl)sc3ccc(Cl)cc23)n1          yes
2  O=C(NCc1ccc2c(c1)OCO2)C12CC3CC(CC(C3)C1)C2           no
3  CCC1(C)Cc2c(sc3nnn(CC(=O)Nc4ccc(Cl)cc4)c(=O)c23)CO1 (stereo not given)           no
4  Cc1ccc(CS(=O)(=O)c2ncc(Cl)c(C(=O)Nc3nnc(C)s3)n2)cc1          yes

Ask | Please state the recorded outcome for this compound: `CCn1c(O)c(N=NC2=NC(=O)CS2)c2cc(C)ccc21`
Reply | no

Ask | Please indicate how the test categorized `Cc1cccc(NC(=O)CSC(N)=O)c1C` .
Reply | no

Ask | // outcome(item) with item = `COc1ccc(NC(=O)CCCC2CCCCC2)c(OC)c1`
Reply | no

Ask | Hello, I am checking results. What call was entered for `COc1ccc(C(=O)Nc2ncc3c(n2)-c2ccccc2CC3)cc1` ?
Reply | no

Ask | For `Cc1cc(C(=O)OCC(=O)Nc2ccc(F)c(F)c2)c(C)o1` , which call appears in the assay record?
Reply | no

Ask | Hello, I am checking results. What call was entered for `CCn1c2ccccc2c2cc(NC(=O)CNC)ccc21` ?
Reply | no

* * *

Target: Short transient receptor potential channel 4 (Mus musculus)
Assay: blockers of DAMGO-evoked TRPC4 calcium flux – cell-based, Fluo4, HEK293 TRPC4beta/mu-opioid, confirmation (AID 2636)
Conditions: at 10 µM
Calls of active or inactive are those of the source.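 The calls were made as follows: active = calcium signal cut by more than 3 SD below the full-agonist control yet still positive, in both repeats and the earlier primary screen; inactive = the rest.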
Thanks in advance; please answer with one of these: active, inactive

For orientation, consider the following solved cases.
> print(dat)
                                   molecule  class.label
1  COc1cc(/C=C2\C(=O)ON=C2c2ccccc2)cc(Cl)c1O       active
2  Cc1ccc(C)n1-c1nnc(N2CCC(C(=O)NCCCN3CC(C)CC(C)C3)CC2)s1 (stereo unspecified)     inactive

Next molecule, please.
Ask | # outcome recorded in this test, key = CCC1CCCCN1S(=O)(=O)c1ccc(C(=O)N(CCCN(C)C)c2nc3cc4c(cc3s2)OCO4)cc1 (stereo unspecified)
Reply | inactive

* * *

Target: Short transient receptor potential channel 4 (Mus musculus) (UniProt Q9QUQ5)
Assay: blockers of DAMGO-evoked TRPC4 calcium flux – cell-based, second round, Fluo4, HEK293 TRPC4beta/mu-opioid, 1 µM, confirmation (AID 2637)
Conditions: at 1 µM
The source made the active and inactive calls.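 The calls were made as follows: active = calcium signal ratio cut to more than 3 SD under the fully stimulated control mean yet still positive, in both repeats and the primary screen; inactive = the rest.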
Assign a class; possible classes are yes (active), no (inactive)

> print(dat)
                                   molecule  class.label
1         COc1ccc([N+](=O)[O-])cc1NCc1ccco1           no
2  CCC(=O)NC(C)C(c1cccs1)N1CCN(c2ccccc2)CC1 (stereo not drawn)           no

Ask | Status in this test for CCOC(=O)C(C)Sc1nc2c(c(=O)[nH]c(=O)n2C)n1Cc1ccc(Cl)cc1 (stereo not drawn) ?
Reply | yes

Ask | State the result this test recorded for `Cc1ccc(NS(=O)(=O)c2cc(C(=O)N3CCc4ccccc4C3)ccc2Cl)cc1` .
Reply | no

Ask | # outcome recorded in this test, key = `CCOc1ccccc1N(CC(=O)N1CCOCC1)S(=O)(=O)c1ccc(SC)cc1`
Reply | no

Ask | Query: recorded result category for `O=C(NC1CCN(Cc2ccccc2)CC1)C12CC3CC(CC(C3)C1)C2` in this test
Reply | no

Ask | Record request — test call for `O=C(c1ccco1)N1CCN(C/C=C/c2ccccc2)CC1`
Reply | yes

Ask | Hi, sorry to bother you, what did the test record for `COc1ccc2c(c1)sc(N)[n+]2Cc1cc(C)cc2cccnc12` ?
Reply | no

Ask | Hi team, can someone confirm the assay call for Cc1ccc(C)c2[nH]c(=O)c(CN(CC3CCCO3)C(=S)NCc3ccco3)cc12 (stereo not drawn) ?
Reply | no

Ask | Test call for this molecule, please: `Cc1ccccc1OCCNc1cc(N2CCNCC2)ccc1[N+](=O)[O-]`
Reply | no

Ask | Just curious, what result did `Cc1cc([N+](=O)[O-])ccc1NCc1ccccc1` get here?
Reply | yes

Ask | Call for entry `COc1ccc(NS(=O)(=O)c2ccc3ccccc3c2)c2ncccc12` :
Reply | no

Ask | Which outcome was entered for the molecule `O=[N+]([O-])c1ccc(/C=N/Nc2nc(N3CCCCC3)nc(N3CCCCC3)n2)o1` in this test?
Reply | no

Ask | Which outcome did this test record for the molecule `COC(=O)CSc1nnc(CNS(=O)(=O)c2ccc(Br)cc2)n1C` ?
Reply | no

Ask | Short answer needed: outcome of this test for `O=C(CC1CCCCC1)c1c(O)c2ccccc2oc1=O` ?
Reply | no

Ask | For `CN(C)CCOc1ccc2ccccc2c1` , which call appears in the assay record?
Reply | no

Ask | How was COc1ccc(Br)cc1CNC(C)c1ccccc1 (stereo not drawn) classified in this test?
Reply | no

Ask | Assay outcome for COc1cccc(N2C(=O)CC(N3CCN(CCN=CC4=C(O)CC(C)(C)CC4=O)CC3)C2=O)c1 (stereo not drawn) : what was it?
Reply | no

Ask | Each molecule tested received a call. Report the one for `CCCCN(CC)CCCNC(=O)c1cc2cc3ccc(C)cc3nc2o1` .
Reply | no

Ask | Give the logged outcome of this assay for the following molecule: CCC(C)NC(C(=O)Nc1ccc(Cl)c([N+](=O)[O-])c1)c1ccccc1 (stereo not drawn)
Reply | no

Ask | For this molecule, state the assay outcome: `CCc1ccc2nc(N=C(N)N)nc(C)c2c1`
Reply | no

Ask | What is the recorded call for this molecule in the test? `COC(=O)c1ccc(CSc2nc3ccccc3c(=O)n2CC(C)C)o1`
Reply | yes

Ask | What classification did `N#CCCn1cc(CNCc2ccccc2)c(-c2cccc([N+](=O)[O-])c2)n1` end up with in this test?
Reply | yes
